assay: Displacement of [3H]muscimol from GABAA receptor in Sprague-Dawley rat brain synaptic membranes after 60 mins by Topcount scintillation counting method
The entries below come with measured pKi values attached.
Units for pKi: none; it is -log10 of a concentration expressed in mol/L.

Example compounds with recorded pKi:
Using the record for Oc1nn(C2CCNCC2)nc1Cc1ccc2ccccc2c1 , report its pKi.
5.48

And NCCc1nsnc1O ?
4.12

***
Using the record for Oc1nnn(C2CCNCC2)c1CCC(c1ccccc1)c1ccccc1 , report its pKi.
5.80

====

test: Ionization constant, pKa of the compound in KCl at pH 1.8 by potentiometric titration method; format: physicochemical
The entries below come with measured pKa values attached.
Could you keep your reply to the number by itself?

Using the record for Oc1cnn(C2CCNCC2)n1 , report its pKa.
6.36

***
Using the record for NCCc1nsnc1O , report its pKa.
4.54

And Cn1nc(O)c(CCN)n1 ?
5.92

And Oc1cn(C2CCNCC2)nn1 ?
6.51

====

The entries below come with measured pKi values attached.
assay: Displacement of [3H]muscimol from GABAA receptor in Sprague-Dawley rat brain synaptic membranes after 60 mins by Topcount scintillation counting method
Could you keep your reply to the number by itself?

Using the record for Oc1nn(C2CCNCC2)nc1Cc1ccc2ccccc2c1 , report its pKi.
5.49

And Oc1nnn(C2CCNCC2)c1CCC(c1ccccc1)c1ccccc1 ?
5.8

And NCCc1nsnc1O ?
4.13

And Oc1nnn(C2CCNCC2)c1Cc1ccc2ccccc2c1 ?
5.62

Proceeding to the next compound to report its pKi.
Using the record for Oc1cn(C2CCNCC2)nn1 , report its pKi.
4.26

====

experiment: Ionization constant, pKa of the compound; format: physicochemical
assay-endpoint: pKa
Could you keep your reply to the number by itself?

Using the record for On1cc(C2CCNCC2)cn1 , report its pKa.
5.4

====

assay: Displacement of [3H]muscimol from GABAA receptor in Sprague-Dawley rat brain synaptic membranes after 60 mins by Topcount scintillation counting method
assay-endpoint: pKi
Units for pKi: none; it is -log10 of a concentration expressed in mol/L.

Example compounds with recorded pKi:
Using the record for Oc1cn(C2CCNCC2)nn1 , report its pKi.
4.26

And Oc1nnn(C2CCNCC2)c1Cc1ccc2ccccc2c1 ?
5.62

Proceeding to the next compound to report its pKi.
Using the record for On1cc(C2CCNCC2)cn1 , report its pKi.
5.00

Entry source: ChEMBL document CHEMBL4265929
